# system: Human recombinant MMP-14 (Homo sapiens, UniProt P50281)
# Construct: The catalytic domain enzyme was expressed in E. coli inclusion bodies, solubilized in urea; made in house
# assay protocol: In vitro MMP inhibition analysis (fluorogenic peptide substrate cleavage), Ki
# Assay type: biochemical
# assay setup: Table 2
pKi: −log10 of the molar value.
# pKi per entry

[
  {
    "smiles notation": "CC(C)N(C(=O)N1CCC(C(=O)NO)(S(=O)(=O)c2ccc(-c3ccc(CCC(F)(F)C(F)(F)F)cc3)cc2)CC1)C(C)C",
    "system": "Human recombinant MMP-14 (Homo sapiens, UniProt P50281)",
    "bound type": "=",
    "pKi": 5.93
  },
  {
    "smiles notation": "O=C(NO)C1(S(=O)(=O)c2ccc(-c3cnc(-c4cccs4)cn3)cc2)CCOCC1",
    "system": "Human recombinant MMP-14 (Homo sapiens, UniProt P50281)",
    "bound type": "<",
    "pKi": 5.00
  },
  {
    "smiles notation": "C#CCN1CCC(C(=O)NO)(S(=O)(=O)c2ccc(-c3ccc(CCC(F)(F)C(F)(F)F)cn3)cc2)CC1",
    "system": "Human recombinant MMP-14 (Homo sapiens, UniProt P50281)",
    "bound type": "=",
    "pKi": 6.23
  },
  {
    "smiles notation": "CCc1ccc(-c2ccc(S(=O)(=O)C3(C(=O)NO)CCOCC3)cc2)cc1",
    "system": "Human recombinant MMP-14 (Homo sapiens, UniProt P50281)",
    "bound type": "=",
    "pKi": 7.56
  },
  {
    "smiles notation": "CCN1CCC(C(=O)NO)(S(=O)(=O)c2ccc(-c3noc(-c4ccc(C(F)(F)F)cc4)n3)cc2)CC1",
    "system": "Human recombinant MMP-14 (Homo sapiens, UniProt P50281)",
    "bound type": "=",
    "pKi": 6.93
  },
  {
    "smiles notation": "CC(C)COc1cnc(-c2ccc(S(=O)(=O)C3(C(=O)NO)CCOCC3)cc2)cn1",
    "system": "Human recombinant MMP-14 (Homo sapiens, UniProt P50281)",
    "bound type": "=",
    "pKi": 6.63
  },
  {
    "smiles notation": "COc1ccc(C(=O)c2cnc(-c3ccc(S(=O)(=O)C4(C(=O)NO)CCOCC4)cc3)cn2)cc1",
    "system": "Human recombinant MMP-14 (Homo sapiens, UniProt P50281)",
    "bound type": "=",
    "pKi": 6.66
  }
]

Data provenance: patent US20060074243A1
